Species on record: Rattus norvegicus
assay.notes: Compound was evaluated for calcium mobilizing activity in rat serum
Format: functional
Parameters: reference not given here
Threshold 400. Activity below it: 1 (yes). Activity at it or above: 0 (no).

C=C1/C(=C\C=C2/CCC[C@]3(C)[C@@H]([C@H](C)CCCC(C)(C)O)CC[C@@H]23)C[C@@H](O)[C@H](CC)[C@@H]1O : 1 (yes)
C=C1/C(=C\C=C2/CCC[C@]3(C)[C@@H]([C@H](C)CCCC(C)(C)O)CC[C@@H]23)C[C@@H](O)C[C@@H]1O : 1 (yes)
C=C1/C(=C\C=C2/CCC[C@]3(C)[C@@H]([C@H](C)CCCC(C)(C)O)CC[C@@H]23)C[C@@H](O)[C@H](CO)[C@@H]1O : 1 (yes)
C=C1/C(=C\C=C2/CCC[C@]3(C)[C@@H]([C@H](C)CCCC(C)(C)O)CC[C@@H]23)C[C@@H](O)[C@H](CCO)[C@@H]1O : 1 (yes)
C=C1/C(=C\C=C2/CCC[C@]3(C)[C@@H]([C@H](C)CCCC(C)(C)O)CC[C@@H]23)C[C@@H](O)[C@H](CCCO)[C@@H]1O : 0 (no)

Qu. Activity strictly < 400 for this molecule? C=C1/C(=C\C=C2/CCC[C@]3(C)[C@@H]([C@H](C)CCCC(C)(C)O)CC[C@@H]23)C[C@@H](O)[C@H](C)[C@@H]1O
Ans. 0 (no)

Qu. Activity strictly < 400 for this molecule? C=C1/C(=C\C=C2/CCC[C@]3(C)[C@@H]([C@H](C)CCCC(C)(C)O)CC[C@@H]23)C[C@@H](O)[C@H](CCC)[C@@H]1O
Ans. 0 (no)

====

Tested on: HL-60
assay.notes: Compound was evaluated for HL-60 cell differentiation which was assessed in terms of expression of antigen CD11b
Type: functional, Homo sapiens
Parameters: reference not given here
readout: Activity
Give the figure only, with no unit attached.

As a guide, the following entries are already answered.
C=C1/C(=C\C=C2/CCC[C@]3(C)[C@@H]([C@H](C)CCCC(C)(C)O)CC[C@@H]23)C[C@@H](O)C[C@@H]1O [CALCITRIOL] : 100
C=C1/C(=C\C=C2/CCC[C@]3(C)[C@@H]([C@H](C)CCCC(C)(C)O)CC[C@@H]23)C[C@@H](O)[C@H](CCO)[C@@H]1O : 86
C=C1/C(=C\C=C2/CCC[C@]3(C)[C@@H]([C@H](C)CCCC(C)(C)O)CC[C@@H]23)C[C@@H](O)[C@H](CO)[C@@H]1O : 10
C=C1/C(=C\C=C2/CCC[C@]3(C)[C@@H]([C@H](C)CCCC(C)(C)O)CC[C@@H]23)C[C@@H](O)[C@H](C)[C@@H]1O : 444
C=C1/C(=C\C=C2/CCC[C@]3(C)[C@@H]([C@H](C)CCCC(C)(C)O)CC[C@@H]23)C[C@@H](O)[C@H](CC)[C@@H]1O : 106

Qu. Reported Activity, compound C=C1/C(=C\C=C2/CCC[C@]3(C)[C@@H]([C@H](C)CCCC(C)(C)O)CC[C@@H]23)C[C@@H](O)[C@H](CCCO)[C@@H]1O : ____
Ans. 240

Qu. Reported Activity, compound C=C1/C(=C\C=C2/CCC[C@]3(C)[C@@H]([C@H](C)CCCC(C)(C)O)CC[C@@H]23)C[C@@H](O)[C@H](CCC)[C@@H]1O : ____
Ans. 44

====

study.system: Vitamin D3 receptor (Bos taurus)
Sequence (whole entry): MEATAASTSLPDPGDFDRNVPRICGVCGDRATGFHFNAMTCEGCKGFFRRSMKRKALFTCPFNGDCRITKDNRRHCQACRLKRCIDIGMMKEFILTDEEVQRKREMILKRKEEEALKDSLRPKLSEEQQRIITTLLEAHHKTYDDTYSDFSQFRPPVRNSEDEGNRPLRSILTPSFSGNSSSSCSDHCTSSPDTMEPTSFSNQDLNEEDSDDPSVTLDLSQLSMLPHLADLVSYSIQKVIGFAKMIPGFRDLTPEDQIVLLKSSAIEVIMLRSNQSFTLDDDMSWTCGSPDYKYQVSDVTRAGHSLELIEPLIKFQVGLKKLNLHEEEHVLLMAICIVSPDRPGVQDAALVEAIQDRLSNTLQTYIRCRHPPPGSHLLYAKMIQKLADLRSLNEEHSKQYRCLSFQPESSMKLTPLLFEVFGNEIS
assay.notes: Binding affinity for bovine thymus vitamin D receptor (VDR)
Design: reference not given here
readout: Activity
Give the figure only, with no unit attached.

As a guide, the following entries are already answered.
C=C1/C(=C\C=C2/CCC[C@]3(C)[C@@H]([C@H](C)CCCC(C)(C)O)CC[C@@H]23)C[C@@H](O)[C@H](C)[C@@H]1O : 400
C=C1/C(=C\C=C2/CCC[C@]3(C)[C@@H]([C@H](C)CCCC(C)(C)O)CC[C@@H]23)C[C@@H](O)[C@H](CCCO)[C@@H]1O : 300
C=C1/C(=C\C=C2/CCC[C@]3(C)[C@@H]([C@H](C)CCCC(C)(C)O)CC[C@@H]23)C[C@@H](O)C[C@@H]1O [CALCITRIOL] : 100

Qu. Reported Activity, compound C=C1/C(=C\C=C2/CCC[C@]3(C)[C@@H]([C@H](C)CCCC(C)(C)O)CC[C@@H]23)C[C@@H](O)[C@H](CCC)[C@@H]1O : ____
Ans. 20

Qu. Reported Activity, compound C=C1/C(=C\C=C2/CCC[C@]3(C)[C@@H]([C@H](C)CCCC(C)(C)O)CC[C@@H]23)C[C@@H](O)[C@H](CO)[C@@H]1O : ____
Ans. 20

Qu. Reported Activity, compound C=C1/C(=C\C=C2/CCC[C@]3(C)[C@@H]([C@H](C)CCCC(C)(C)O)CC[C@@H]23)C[C@@H](O)[C@H](CC)[C@@H]1O : ____
Ans. 40

Qu. Reported Activity, compound C=C1/C(=C\C=C2/CCC[C@]3(C)[C@@H]([C@H](C)CCCC(C)(C)O)CC[C@@H]23)C[C@@H](O)[C@H](CCO)[C@@H]1O : ____
Ans. 70

====

study.system: Vitamin D-binding protein (Rattus norvegicus) (UniProt P04276)
Sequence (whole entry): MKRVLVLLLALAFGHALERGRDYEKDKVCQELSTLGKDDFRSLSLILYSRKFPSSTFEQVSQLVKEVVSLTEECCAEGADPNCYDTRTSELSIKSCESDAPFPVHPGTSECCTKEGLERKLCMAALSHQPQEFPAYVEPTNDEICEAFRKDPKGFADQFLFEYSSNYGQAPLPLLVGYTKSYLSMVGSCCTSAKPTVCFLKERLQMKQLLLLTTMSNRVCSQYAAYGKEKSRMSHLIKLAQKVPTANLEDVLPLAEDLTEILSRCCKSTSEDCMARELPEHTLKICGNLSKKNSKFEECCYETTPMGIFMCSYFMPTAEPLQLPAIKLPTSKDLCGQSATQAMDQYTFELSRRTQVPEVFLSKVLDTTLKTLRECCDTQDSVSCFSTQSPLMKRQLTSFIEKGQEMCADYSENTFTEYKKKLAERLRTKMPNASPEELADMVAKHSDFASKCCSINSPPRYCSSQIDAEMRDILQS
assay.notes: Compound was tested for binding affinity against rat serum DBP (vitamin D binding protein)
Format: cell-free
Parameters: reference not given here
Think of 70 as a floor: if Activity stands on it or above, it is TRUE; beneath it, FALSE.

C=C1/C(=C\C=C2/CCC[C@]3(C)[C@@H]([C@H](C)CCCC(C)(C)O)CC[C@@H]23)C[C@@H](O)[C@H](CCC)[C@@H]1O : FALSE
C=C1/C(=C\C=C2/CCC[C@]3(C)[C@@H]([C@H](C)CCCC(C)(C)O)CC[C@@H]23)C[C@@H](O)[C@H](C)[C@@H]1O : FALSE
C=C1/C(=C\C=C2/CCC[C@]3(C)[C@@H]([C@H](C)CCCC(C)(C)O)CC[C@@H]23)C[C@@H](O)[C@H](CCO)[C@@H]1O : TRUE
C=C1/C(=C\C=C2/CCC[C@]3(C)[C@@H]([C@H](C)CCCC(C)(C)O)CC[C@@H]23)C[C@@H](O)[C@H](CO)[C@@H]1O : TRUE
C=C1/C(=C\C=C2/CCC[C@]3(C)[C@@H]([C@H](C)CCCC(C)(C)O)CC[C@@H]23)C[C@@H](O)[C@H](CCCO)[C@@H]1O : TRUE
C=C1/C(=C\C=C2/CCC[C@]3(C)[C@@H]([C@H](C)CCCC(C)(C)O)CC[C@@H]23)C[C@@H](O)C[C@@H]1O : TRUE

Please find the next molecule below.
Qu. Decide: is the reported value of Activity for C=C1/C(=C\C=C2/CCC[C@]3(C)[C@@H]([C@H](C)CCCC(C)(C)O)CC[C@@H]23)C[C@@H](O)[C@H](CC)[C@@H]1O equal to or greater than 70?
Ans. FALSE
